- Test system: C. glabrata TGL00293
- assay notes: microbe, parasite or virus in culture
- Assay type: cell-based
- conditions used: strain no. 37, TGL00293, parental BG2, FKS mutant
- Experimental: The antifungal activities of compounds 1a, 1 and 2 (collectively: caspofungin derivatives) were compared to that of caspofungin and CSF-BOD using a panel of 49 C. albicans and C. glabrata strains (Tables 1 and 2). […] Minimal inhibitory concentration (MIC) values for all strains were determined using the broth double dilution method and are summarized in FIG. 2 and Table 2. MIC values were determined using the broth double-dilution method. […]
test readout: MIC

>>> observed("CC[C@H](C)C[C@H](C)CCCCCCCCC(=O)N[C@H]1C[C@@H](O)[C@@H](NCCN)NC(=O)[C@@H]2[C@@H](O)CCN2C(=O)[C@H]([C@H](O)CCN)NC(=O)[C@H]([C@H](O)[C@@H](O)c2ccc(OCc3cn(CCCNc4ccc([N+](=O)[O-])c5nonc45)nn3)cc2)NC(=O)[C@@H]2C[C@@H](O)CN2C(=O)[C@H]([C@@H](C)O)NC1=O")
">64 µg/mL"
>>> observed("CC[C@H](C)C[C@H](C)CCCCCCCCC(=O)N[C@H]1C[C@@H](O)[C@@H](NCCN)NC(=O)[C@@H]2[C@@H](O)CCN2C(=O)[C@H]([C@H](O)CCN)NC(=O)[C@H]([C@H](O)[C@@H](O)c2ccc(OCc3cn(CCCNC(=O)c4ccc(-c5c6ccc(=[N+](C)C)cc-6oc6cc(N(C)C)ccc56)c(C(=O)[O-])c4)nn3)cc2)NC(=O)[C@@H]2C[C@@H](O)CN2C(=O)[C@H]([C@@H](C)O)NC1=O")
">64 µg/mL"
>>> observed("CN(C)c1ccc2c(-c3ccc(C(=O)NCCCN=[N+]=[N-])cc3C(=O)[O-])c3ccc(=[N+](C)C)cc-3oc2c1 [Compound 5-TMR-azide]")
">64 µg/mL"
>>> observed("C#CCOc1ccc([C@H](O)[C@@H](O)[C@@H]2NC(=O)[C@@H]3C[C@@H](O)CN3C(=O)[C@H]([C@@H](C)O)NC(=O)[C@@H](NC(=O)CCCCCCCC[C@@H](C)C[C@@H](C)CC)C[C@@H](O)[C@@H](NCCN)NC(=O)[C@@H]3[C@@H](O)CCN3C(=O)[C@H]([C@H](O)CCN)NC2=O)cc1")
">64 µg/mL"
>>> observed("CC[C@H](C)C[C@H](C)CCCCCCCCC(=O)N[C@H]1C[C@@H](O)[C@@H](NCCNC(=O)CCc2ccc3n2[B-](F)(F)[N+]2=C(C)C=C(C)C2=C3)NC(=O)[C@@H]2[C@@H](O)CCN2C(=O)[C@H]([C@H](O)CCN)NC(=O)[C@H]([C@H](O)[C@@H](O)c2ccc(O)cc2)NC(=O)[C@@H]2C[C@@H](O)CN2C(=O)[C@H]([C@@H](C)O)NC1=O")
">64 µg/mL"
